Assign growth to each entry below.
- Test system: NCI-H226 lung
- Test protocol: NCI-60 one-dose screen, 48 h (100 = growth as untreated, 0 = no growth, -100 = all killed)
- Test settings: 10 µM
This is part of a sample that, as a whole, favours compounds with a hit. Of some 83,000 tested, about 20% had one in any assay.
Numbers only, in %.

Below, 2 compounds whose answers are already recorded.
compound=CCN1CCN(c2nc3ccccc3c3c(=O)c4ccccc4sc23)CC1 measured_parameter=growth result_value=49.5
compound=COc1ccc(-c2nc(-c3nc4ccc(OC)cc4[nH]3)cc3c2[nH]c2ccccc23)cc1 measured_parameter=growth result_value=65.3

Batch: growth for all items listed.
1. c1ccc([I+]c2ccccc2)cc1
2. O=C(CC(NC(=O)OCc1ccccc1)C(=O)OCc1ccccc1)OCc1ccccc1 (centres undefined)

[A]
[65.5, 106]

* * *

- Test system: NCI-H226 lung
- Test protocol: NCI-60 one-dose screen, 48 h
- Test settings: 10 µM
The panel holds about 83,000 compounds, 20% with a hit somewhere; the sample as a whole holds those more often. The source made the active and inactive calls. Rule for the calls: active = growth percent below 10; inactive = the rest.
# output must be one of active, inactive

Reference set, count: 6
compound=COc1ccc(-c2nc3sc(-c4ccc(OC)cc4)c(-c4ccc(OC)cc4)n3c2/C=C/c2ccc(C(C)C)cc2)cc1 label_class=inactive
compound="N#CSCC1CC(O)(c2ccccc2)CC(c2ccc(Cl)cc2)O1 (centres undefined)" label_class=inactive
compound="CCN(CC)CCCC(C)Nc1ccc2ccc(Cl)cc2n1 (centres undefined)" label_class=inactive
compound="CCOC(=O)C1(CC(C)C)CCOC1=O (centres undefined)" label_class=inactive
compound="CCOC(=O)C(NC(=O)C(Cl)Cl)C(O)c1ccccc1 (centres undefined)" label_class=inactive
compound=Cc1cc(C)c2c(n1)sc1c(Nc3ccc(Cl)cc3)ncnc12 label_class=active

[Q] Recorded test call requested for `N#Cc1ncc(-c2cc(F)c(F)c(F)c2)c(NC2CCCCCC2)n1`
[A] inactive

[Q] Recorded test call requested for CCCCC(CCCCCC(CCCC)NCc1ccc2c(c1)OCO2)NCc1ccc2c(c1)OCO2 (centres undefined)
[A] active

[Q] Recorded test call requested for COc1cccc(C2C3=C(COC3=O)N(CCO)c3cc(OC)ccc32)c1 (centres undefined)
[A] active

* * *

- Tested on: SK-MEL-2 melanoma
- Test protocol: NCI-60 one-dose screen, 48 h (100 = growth as untreated, 0 = no growth, -100 = all killed)
- Test settings: 10 µM
About 83,000 compounds went through this panel and 20% of them were active in at least one assay; those are over-represented in the sample as a whole. Calls of active or inactive are those of the source. Rule for the calls: active = growth percent below 10; inactive = the rest.
Measured parameter: growth

compound="CC1CN(Cc2ccccc2)C(=O)NC1=O (centres undefined)" result_value="102% (inactive)"
compound=CN1CCC(CNc2cc(C3(C(=O)Nc4cc(C(=O)Nc5ccc(Cl)c(C(F)(F)F)c5)ccc4F)CC3)ncn2)CC1 result_value="-57.2% (active)"
compound=CSc1nc(=O)n(Cc2ccc(F)cc2)c(=O)n1Cc1ccc(C)cc1 result_value="108% (inactive)"
compound=COc1cc(/C=N/NC(=O)c2ccccc2Nc2ccnc(C(F)(F)F)c2)ccc1O result_value="113% (inactive)"
compound=COC(=O)[C@@H]1[C@H](O)[C@H](C)[C@H](O)[C@@](C)(O)/C=C\C=C(C)C(=O)Nc2c(C)c(OC(C)=O)c3c(c2O)C(=O)C(C)=C2OCOC(=C23)C(C)=C[C@@](C)(O)[C@H](O)[C@@H](C)[C@H]1OC(C)=O result_value="117% (inactive)"
compound=CC[C@H]1CCC/C=C/[C@@H]2C[C@H](O)C[C@H]2[C@H](O)/C=C/C(=O)O1 result_value="-48.1% (active)"
compound="COc1ccc(-c2nsc3c2NC(=O)CC3c2ccc(F)cc2)cc1 (centres undefined)" result_value="-11.7% (active)"
compound=CN(C)C=Nc1cc(Cl)ccc1Cl result_value="97% (inactive)"

Batch: growth for all items listed.
1. CN(C)CCN1C(=O)c2cccc3cc(N)cc(c23)C1=O
2. c1ccc(CNc2ncnc3scc(-c4cccs4)c23)nc1
3. COc1cc(C(=O)/C=C/c2cc(-c3cc(OC)c(OC)c(OC)c3)n[nH]2)cc(OC)c1OC
4. O=C1/C(=C\c2ccc(Cl)cc2)CN(C(=O)c2ccccc2)C/C1=C\c1ccc(Cl)cc1
5. COc1cc([C@@H]2c3cc4c(cc3C(Br)[C@H]3COC(=O)[C@H]23)OCO4)cc(OC)c1OC (some centres undefined)
6. Cc1ccc(Nc2nnc(-c3cc(-c4ccncc4)n(-c4ccccc4)n3)s2)cc1
7. CCCCCCCCCCCCCCCCCCOCC(COCCOCC[N+]1(CCCCCC(=O)[O-])CCCC1)Oc1ncccn1 (centres undefined)
8. O=C(Nc1ccc(CN2CCc3nc4cc(O)c(O)cc4cc32)cc1)c1ccc(Cl)c(Cl)c1

[A]
1: 29.1% (inactive); 2: 72.2% (inactive); 3: 4.38% (active); 4: 87.1% (inactive); 5: 7.95% (active); 6: 92.4% (inactive); 7: 70.3% (inactive); 8: 105% (inactive)

Batch: growth for all items listed.
1. CN1CC[C@@H](c2c(O)cc(O)c3c(=O)cc(-c4ccccc4Cl)oc23)[C@@H](O)C1
2. CCN1CCN(c2nc3ccccc3c3c(=O)c4ccccc4sc23)CC1
3. COc1cc(-c2cc(/C=C3\C(=O)Nc4ccc(Cl)cc43)[nH]n2)cc(OC)c1OC
4. CCCCCCNC(=O)Oc1ccc(/C(=C(/CC)Cc2ccccc2)c2ccc(OCCN3CCCCC3)cc2)cc1
5. CC(=O)C1CCC2C3CC(F)C4=CC(=O)CCC4(C)C3C(O)CC12C (centres undefined)
6. CCCCCCN(CCCCCC)CC(O)c1ccc2c3c(cccc13)CC2 (centres undefined)
7. Cc1cccc2c1O/C(=C\c1ccc([N+](=O)[O-])o1)C2=O
8. COc1ccc(-c2nc(-c3nc4ccc(OC)cc4[nH]3)cc3c2[nH]c2ccccc23)cc1

[A]
1: -40.7% (active); 2: 98.5% (inactive); 3: -19.1% (active); 4: 91.3% (inactive); 5: 137% (inactive); 6: 55.8% (inactive); 7: -62.8% (active); 8: 11.2% (inactive)

Batch: growth for all items listed.
1. CC12O[C@H](C[C@@H](O)[C@H]1O)n1c3ccccc3c3c4c(c5c6ccccc6n2c5c31)C(=O)N(CCCN)C4=O
2. CC(=O)n1c(-c2ccc(Cl)c(Cl)c2)cn(-c2ccc(Cl)cc2)c1=O
3. c1ccc(CP(Cc2ccccc2)c2ccccc2)cc1

[A]
1. 50.3% (inactive)
2. 80.9% (inactive)
3. 97% (inactive)

Batch: growth for all items listed.
1. N#CCCN1C/C(=C/c2ccc(Cl)cc2)C(=O)/C(=C/c2ccc(Cl)cc2)C1
2. CC(=O)c1cc(Br)ccc1O
3. Cn1c([N+](=O)[O-])cnc1/C=C1\Oc2ccccc2C1=O
4. CCCCN(CCCC)CCCCCCCCC(O)c1cc2ccccc2c2ccccc12 (centres undefined)

[A]
19% (inactive)
106% (inactive)
-53.3% (active)
84.7% (inactive)

Batch: growth for all items listed.
1. Cc1nc2ccc(CN(C)c3ccc(C(=O)N[C@@H](CCC(=O)O)C(=O)O)s3)cc2c(=O)[nH]1
2. COc1cc2cc3c(nc2cc1OC)CCN3Cc1ccc(NC(=O)Nc2cc(C(F)(F)F)cc(C(F)(F)F)c2)cc1
3. CCC1(C(C)C)NC(=O)NC1=O (centres undefined)

[A]
1. 105% (inactive)
2. 80.2% (inactive)
3. 83.8% (inactive)

Sourced from PubChem BioAssay (NCI)
